Values were extracted from the NIST ThermoML archive (doi:10.1021/je030141r).

refractive index by entry:
Run Description: refractive index (Na D-line) (dimensionless)
Protocol Conditions: 298.15 K; 101.33 kPa; Liquid; Standard Abbe refractometry
Please reply with the value in numeric form only.

// returns reported refractive index for input CCC(C)CO (stereo not given)
1.4084

What value of refractive index has been reported for the following molecule? "ClC=C(Cl)Cl"
1.475

// query refractive index value for entry "CC(Cl)(Cl)Cl"
1.4359

What value of refractive index has been reported for the following molecule? "CC(C)(C)O"
1.385

Which refractive index value is on record for "CC(C)CO" ?
1.3939

###

Protocol Conditions: 298.15 K; 101.33 kPa; Liquid
Strictly below 800 kg/m3 in mass density: met. Otherwise: not met.

Example entries and their recorded answers appear below.
{"Structure": "CC(Cl)(Cl)Cl", "Assigned Label": "not met"}
{"Structure": "ClC(Cl)C(Cl)Cl", "Assigned Label": "not met"}
{"Structure": "C1CCCCC1", "Assigned Label": "met"}
{"Structure": "ClCCCl", "Assigned Label": "not met"}
{"Structure": "ClC(Cl)=C(Cl)Cl", "Assigned Label": "not met"}

Shift focus to the following entry.
Lab log: compare recorded mass density with 800 kg/m3; is it strictly lower for "CCCCCCC" ?
met

###

Run Description: refractive index (Na D-line) (dimensionless)
Protocol Conditions: 298.15 K; 101.33 kPa; Liquid; Standard Abbe refractometry
# key: entry, value: refractive index
Form rule: numeric answer, no unit written next to it.

Known results for compounds:
{"Compound": "ClC(Cl)=C(Cl)Cl [tetrachloroethene]", "refractive index": 1.5032}
{"Compound": "CCC(C)O (stereo not drawn) [butan-2-ol]", "refractive index": 1.3953}
{"Compound": "CCC(C)=O [butanone]", "refractive index": 1.3769}
{"Compound": "CCCCO [butan-1-ol]", "refractive index": 1.3974}

Bench note: what refractive index did ClC(Cl)C(Cl)Cl [1,1,2,2-tetrachloroethane] show?
1.4914

What does the data say about its refractive index? Entry: ClCCCl [1,2-dichloroethane]
1.4421

# query: refractive index of entry C1CCCCC1 [cyclohexane]
1.4235

Find the recorded refractive index belonging to CCCCCCC [heptane] and report it.
1.3851

###

Protocol Conditions: 298.15 K; 101.33 kPa; Liquid
Reported Metric: mass density (kg/m3)
The response must be a number in kg/m3 with no trailing unit.

{"Molecule": "CC(C)CO [2-methyl-1-propanol]", "Measurement": 798}

Param item = CCC(C)O (stereo unspecified) [butan-2-ol] ; retrieve measured mass density.
802.4

Looking for the measured mass density of CCCCO [butan-1-ol] , can you help?
805.8

Query: mass density; subject: CCC(C)CO (stereo unspecified) [2-methyl-1-butanol]
815

Return reported mass density; argument: CCC(C)=O [butanone]
799.7

Name the reported mass density value associated with the molecule CC(C)(C)O [2-methylpropan-2-ol]
781.2
